Sourced from patent US8178535B2

Target: B1R receptor of rats (rB1R) (Rattus norvegicus, UniProt P97583)
Construct: host or cells: CHO K1 cells
Sequence (P97583 1-337): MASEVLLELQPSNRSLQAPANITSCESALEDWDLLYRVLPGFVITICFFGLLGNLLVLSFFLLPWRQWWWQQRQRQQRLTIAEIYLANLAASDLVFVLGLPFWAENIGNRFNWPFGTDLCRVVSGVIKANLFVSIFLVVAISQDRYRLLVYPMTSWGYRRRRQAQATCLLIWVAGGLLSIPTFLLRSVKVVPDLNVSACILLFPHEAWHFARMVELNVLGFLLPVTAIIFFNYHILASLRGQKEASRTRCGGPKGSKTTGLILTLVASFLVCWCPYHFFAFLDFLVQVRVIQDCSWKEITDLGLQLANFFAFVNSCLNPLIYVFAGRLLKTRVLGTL
Experiment: FLIPR Ca2+ assay (Fluo-4) on CHO K1 cells stably transfected with the B1R gene of rats
Assay type: cell-based
Conditions: CHO-K1; test substance 10 μM; agonist Des-Arg9-bradykinin 100 nM; % inhibition compared to the maximum achievable inhibition
Description: The agonistic or antagonistic action of compounds can be quantified on the bradykinin 1 receptor (B1R) of humans and rats with ectopically expressing cell lines (CHO K1 cells) and with the aid of a Ca^2+-sensitive dye (Fluo-4) in the fluorescent imaging plate reader (FLIPR). […] The agonistic or antagonistic action of substances can be determined on the bradykinin 1 receptor (B1R) of humans and rats by means of the following assay. […]
Value kind: inhibition at 10 µM (%)

COc1cc(C)c(S(=O)(=O)N2CCCCC2COCC(=O)N2CCn3c(CN(C)C)ccc3C2Cc2ccccc2)c(C)c1 (stereo not shown) = 100
COc1cc(C)c(S(=O)(=O)N2CCCCC2COCC(=O)N2CCn3cccc3C2c2cccc(C(F)(F)F)c2)c(C)c1 (stereo not shown) = 98
COc1cc(C)c(S(=O)(=O)N2CCCCC2COCC(=O)N2CCn3c(CCc4cccnc4)ccc3C2)c(C)c1 (stereo not shown) = 98
COc1cc(C)c(S(=O)(=O)N2CCCCC2COCC(=O)N2CCn3c(CN(C)C)ccc3C2c2ccccc2)c(C)c1 (stereo not shown) = 101
COc1cc(C)c(S(=O)(=O)N2CCCCC2COCC(=O)N2CCn3cccc3C2c2ccc(C)c(C)c2)c(C)c1 (stereo not shown) = 97
COc1cc(C)c(S(=O)(=O)N2CCCCC2COCC(=O)N2CCn3c(CCc4ccncc4)ccc3C2)c(C)c1 (stereo not shown) = 99
Cc1cc(C)c(S(=O)(=O)N2CCCCC2COCC(=O)N2CCn3c(CN4CCCCC4)ccc3C2c2ccccc2)c(C)c1 (stereo not shown) = 103
COc1cc(C)c(S(=O)(=O)N2CCCCC2COCC(=O)N2CCn3c(ccc3-c3cccnc3)C2)c(C)c1 (stereo not shown) = 96
Cc1cc(C)c(S(=O)(=O)N2CCCCC2COCC(=O)N2CCn3c(CN(C)C)ccc3C2c2ccccc2)c(C)c1 (stereo not shown) = 102
COc1cc(C)c(S(=O)(=O)N2CCCCC2COCC(=O)N2CCn3cc(Cc4ccncc4)nc3C2)c(C)c1 (stereo not shown) = 105

* * *

Molecular target: human B1R receptor (hB1R) (Homo sapiens)
Construct: host or cells: CHO K1 cells
Test: FLIPR Ca2+ assay (Fluo-4) on CHO K1 cells stably transfected with the human B1R gene
Format: cell-based
Conditions: CHO-K1; test substance 10 μM; agonist Lys-Des-Arg9-bradykinin 0.5 nM; % inhibition compared to the maximum achievable inhibition
Value kind: inhibition at 10 µM (%)

Field: example entries. Status: answers known.
CCCC1c2cccn2CCN1C(=O)COCC1CCCCN1S(=O)(=O)c1c(C)cc(OC)cc1C (stereo not shown) [(71)] = 103
COc1cc(C)c(S(=O)(=O)N2CCCCC2COCC(=O)N2CCn3c(CN4CCCCC4)ccc3C2c2ccccc2)c(C)c1 (stereo not shown) [(63)] = 104
COc1cc(C)c(S(=O)(=O)N2CCCCC2COCC(=O)N2CCn3c(ccc3-c3ccncc3)C2)c(C)c1 (stereo not shown) [(95)] = 99
COc1cc(C)c(S(=O)(=O)N2CCCCC2COCC(=O)N2CCn3c(Cc4ccncc4)ccc3C2)c(C)c1 (stereo not shown) [(88)] = 99
COc1cc(C)c(S(=O)(=O)N2CCCCC2COCC(=O)N2CCn3cccc3C2c2cccs2)c(C)c1 (stereo not shown) [(29)] = 102
O=C(COCC1CCc2ccccc2N1S(=O)(=O)c1ccc(Cl)c(Cl)c1)N1CCn2c(CN3CCCC3)ccc2C1 (stereo not shown) [(10)] = 101

P = O=C(CC1CCCCN1S(=O)(=O)c1cccc(C(F)(F)F)c1)N1CCn2c(CCc3ccncc3)ccc2C1 (stereo not shown) [(107)]
Q = COc1cc(C)c(S(=O)(=O)N2CCCCC2COCC(=O)N2CCn3c(CCCN4CCN(C)CC4)ccc3C2)c(C)c1 (stereo not shown) [(14)]
Would you let me know which has the greater inhibition at 10 µM value, P or Q ? Give the chosen item's label as your response.
Q

* * *

Target: B1R receptor of rats (rB1R) (Rattus norvegicus)
Construct: host or cells: CHO K1 cells
Sequence (P97583 1-337): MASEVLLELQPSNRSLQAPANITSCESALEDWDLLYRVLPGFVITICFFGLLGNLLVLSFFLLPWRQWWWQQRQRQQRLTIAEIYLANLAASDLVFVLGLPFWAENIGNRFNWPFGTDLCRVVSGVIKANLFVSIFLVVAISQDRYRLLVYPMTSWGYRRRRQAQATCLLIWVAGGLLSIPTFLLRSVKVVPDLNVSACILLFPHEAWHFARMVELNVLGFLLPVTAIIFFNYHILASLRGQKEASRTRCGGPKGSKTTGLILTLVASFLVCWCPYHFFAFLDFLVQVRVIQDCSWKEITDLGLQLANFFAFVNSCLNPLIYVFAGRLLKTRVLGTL
Test: FLIPR Ca2+ assay (Fluo-4) on CHO K1 cells stably transfected with the B1R gene of rats
Type: cell-based
Details: CHO-K1; test substance 10 μM; agonist Des-Arg9-bradykinin 100 nM; % inhibition compared to the maximum achievable inhibition
Value kind: inhibition at 10 µM (%)

COc1cc(C)c(S(=O)(=O)N2CCCCC2COCC(=O)N2CCn3cc(-c4ccncc4)nc3C2)c(C)c1 (stereo not drawn) = 101
COc1cc(C)c(S(=O)(=O)N2CCCCC2CCCC(=O)N2CCn3cc(-c4ccncc4)nc3C2)c(C)c1 (stereo not drawn) = 101
COc1cc(C)c(S(=O)(=O)N2CCCCC2CCC(=O)N2CCn3c(Cc4cccnc4)ccc3C2)c(C)c1 (stereo not drawn) = 100
COc1cc(C)c(S(=O)(=O)N2CCCCC2COCC(=O)N2CCn3c(Cc4cccnc4)ccc3C2)c(C)c1 (stereo not drawn) = 98
COc1cc(C)c(S(=O)(=O)N2CCCCC2CCC(=O)N2CCn3cc(-c4ccncc4)nc3C2)c(C)c1 (stereo not drawn) = 98

A = Cc1cc(C)c(S(=O)(=O)N2CCCCC2COCC(=O)N2CCn3c(CN(C)C)ccc3C2CCc2ccccc2)c(C)c1 (stereo not drawn)
B = CN1CCN(Cc2ccc3n2CCN(C(=O)CC2CCCCN2S(=O)(=O)c2cccc(C(F)(F)F)c2)C3)CC1 (stereo not drawn)
Which is greater in inhibition at 10 µM, the first item A or the second item B ? Reply with the label of the item you choose.
A
(A: 101%, B: 52%)

* * *

Target: human B1R receptor (hB1R) (Homo sapiens, UniProt P46663)
Construct: host or cells: CHO K1 cells
Sequence (P46663 1-353): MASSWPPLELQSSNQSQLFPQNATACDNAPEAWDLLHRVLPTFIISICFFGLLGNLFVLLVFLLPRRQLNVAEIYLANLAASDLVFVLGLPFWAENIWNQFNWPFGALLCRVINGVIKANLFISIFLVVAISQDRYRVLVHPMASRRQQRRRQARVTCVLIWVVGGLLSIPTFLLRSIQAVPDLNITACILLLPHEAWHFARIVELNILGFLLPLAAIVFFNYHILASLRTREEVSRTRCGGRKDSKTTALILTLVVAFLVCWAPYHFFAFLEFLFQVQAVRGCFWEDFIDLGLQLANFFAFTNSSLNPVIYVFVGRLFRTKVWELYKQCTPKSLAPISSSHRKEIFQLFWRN
Test: FLIPR Ca2+ assay (Fluo-4) on CHO K1 cells stably transfected with the human B1R gene
Format: cell-based
Conditions: CHO-K1; test substance 10 μM; agonist Lys-Des-Arg9-bradykinin 0.5 nM; % inhibition compared to the maximum achievable inhibition
Value kind: inhibition at 10 µM (%)

CCCCC1c2ccc(CN(C)C)n2CCN1C(=O)COCC1CCCCN1S(=O)(=O)c1c(C)cc(OC)cc1C (stereo not drawn) = 102
COc1cc(C)c(S(=O)(=O)N2CCCCC2COCC(=O)N2CCn3c(CN4CCCC4)ccc3C2c2ccccc2)c(C)c1 (stereo not drawn) = 102
COc1cc(C)c(S(=O)(=O)N2CCCCC2COCC(=O)N2CCn3cccc3C2C)c(C)c1 (stereo not drawn) = 101
COc1cc(C)c(S(=O)(=O)N2CCCCC2CCCC(=O)N2CCn3c(ccc3-c3ccncc3)C2)c(C)c1 (stereo not drawn) = 84
COc1cc(C)c(S(=O)(=O)N2CCCCC2COCC(=O)N2CCn3c(CCc4cccnc4)ccc3C2)c(C)c1 (stereo not drawn) = 100
COc1cc(C)c(S(=O)(=O)N2CCCCC2COCC(=O)N2CCn3cccc3C2C(C)(C)C)c(C)c1 (stereo not drawn) = 102
Cc1cc(S(=O)(=O)N2CCCCC2CCC(=O)N2CCn3c(CN4CCOCC4)ccc3C2)c(C)cc1Cl (stereo not drawn) = 103
COc1cc(C)c(S(=O)(=O)N2CCCCC2COCC(=O)N2CCn3c(Cc4cccnc4)ccc3C2)c(C)c1 (stereo not drawn) = 100
O=C(CC1CCCCN1S(=O)(=O)c1cccc(C(F)(F)F)c1)N1CCn2cc(CCc3ccncc3)nc2C1 (stereo not drawn) = 78
COc1cc(C)c(S(=O)(=O)N2CCCCC2COCC(=O)N2CCn3c(CN(C)C)ccc3C2Cc2ccccc2)c(C)c1 (stereo not drawn) = 102
COc1cc(C)c(S(=O)(=O)N2CCCCC2COCC(=O)N2CCn3cc(Cc4ccncc4)nc3C2)c(C)c1 (stereo not drawn) = 99
COc1cc(C)c(S(=O)(=O)N2CCCCC2COCC(=O)N2CCn3cccc3C2c2cccc(F)c2)c(C)c1 (stereo not drawn) = 98
